Listing of entries alongside the reported viability, T/C.
# Test system: 379773-124-R-J2-PDC spheroid viability
# measurement.description: Anticancer human tumor 379773-124-R-J2-PDC patient-derived endometrial carcinoma cell line growth inhibition [POLQ]
# assay.setup: second compound 1 µM; first compound 3.16 µM; active compounds read low; spheroids with HUVEC and MSC

molecule	viability, T/C (%)
CC1COCCN1c1cc(C2(O)CC3CCC(C2)O3)c2cnn(-c3ccn[nH]3)c2n1 (stereo unspecified) + Nc1ccc(C#CCN(C(=O)Cc2ncc(C(F)(F)F)cc2C(F)(F)F)c2ccc(F)cc2)nn1	8.92
COc1cc2cc(C(=O)CCC(=O)O)sc2cc1OC + COC1C(OC(N)=O)C(O)C(Oc2ccc3c(O)c(NC(=O)c4ccc(O)c(CC=C(C)C)c4)c(=O)oc3c2C)OC1(C)C	90
CC1COCCN1c1cc(C2(O)CC3CCC(C2)O3)c2cnn(-c3ccn[nH]3)c2n1 (stereo unspecified) + Cc1cccc(N(C)C(=O)C2C(O)CCN2c2nc(C)cc(C(F)(F)F)c2C#N)c1	7
O=C(c1cc(Cc2n[nH]c(=O)c3ccccc23)ccc1F)N1CCN(C(=O)C2CC2)CC1 + Cc1cccc(N(C)C(=O)C2C(O)CCN2c2nc(C)cc(C(F)(F)F)c2C#N)c1	95.4
CNCc1ccc(-c2[nH]c3cc(F)cc4c3c2CCNC4=O)cc1 + COC1C(OC(N)=O)C(O)C(Oc2ccc3c(O)c(NC(=O)c4ccc(O)c(CC=C(C)C)c4)c(=O)oc3c2C)OC1(C)C	82.6
O=C(Nc1ccc(O)c(NS(=O)(=O)c2ccc(F)cc2)c1)c1ccc(-c2ccccc2)cc1 + Cc1cccc(N(C)C(=O)C2C(O)CCN2c2nc(C)cc(C(F)(F)F)c2C#N)c1	94.5

* * *

Listing of entries alongside the reported viability, T/C.
# System: 379773-124-R-J2-PDC spheroid viability
# measurement.description: Anticancer human tumor 379773-124-R-J2-PDC cell line growth inhibition [POLQ];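 note: spheroids exposed to drugs for seven days before readout; percent viability relative to DMSO vehicle control taken as 100%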
# assay.setup: second compound 0.1 µM; first compound 3.16 µM; active compounds read low; spheroids with HUVEC and MSC
recorded.endpoint: viability, T/C

compound	recorded.endpoint	result
CCc1cc2c(N3CCc4c(cc(Cn5ccnc5)cc4-c4cn(C)nc4C(F)(F)F)C3=O)cc(C)nc2c(OC)n1 + COC1C(OC(N)=O)C(O)C(Oc2ccc3c(O)c(NC(=O)c4ccc(O)c(CC=C(C)C)c4)c(=O)oc3c2C)OC1(C)C	viability, T/C	49.4%
COc1cccc2c1C(=O)c1c(O)c3c(c(O)c1C2=O)CC(O)(C(=O)CO)CC3OC1CC(N)C(O)C(C)O1 (stereo unspecified) + Cc1cccc(N(C)C(=O)C2C(O)CCN2c2nc(C)cc(C(F)(F)F)c2C#N)c1	viability, T/C	1.37%
COc1cc2cc(C(=O)CCC(=O)O)sc2cc1OC + Cc1cccc(N(C)C(=O)C2C(O)CCN2c2nc(C)cc(C(F)(F)F)c2C#N)c1	viability, T/C	105%
COc1ccc([C@@H](O)c2cc(-c3ncnc4cc(N5CCOCC5)ccc34)c(F)cc2Cl)nn1 + COC1C(OC(N)=O)C(O)C(Oc2ccc3c(O)c(NC(=O)c4ccc(O)c(CC=C(C)C)c4)c(=O)oc3c2C)OC1(C)C	viability, T/C	91.1%
CC(C)n1c(=O)n(C)c2cnc3cc(F)c(-c4ccc(OCCCN5CCCCC5)nc4)cc3c21 + COC1C(OC(N)=O)C(O)C(Oc2ccc3c(O)c(NC(=O)c4ccc(O)c(CC=C(C)C)c4)c(=O)oc3c2C)OC1(C)C	viability, T/C	64.3%
CC1COCCN1c1cc(-c2ccnn2C)c2ccnc(-c3ccn[nH]3)c2n1 (stereo unspecified) + Cc1cccc(N(C)C(=O)C2C(O)CCN2c2nc(C)cc(C(F)(F)F)c2C#N)c1	viability, T/C	8.42%
